The values you see were collected from patent US11986450B2.

test.target: recombinant E. coli Cys-TrxR (Escherichia coli, UniProt P0A9P4)
Sequence (P0A9P4 whole entry): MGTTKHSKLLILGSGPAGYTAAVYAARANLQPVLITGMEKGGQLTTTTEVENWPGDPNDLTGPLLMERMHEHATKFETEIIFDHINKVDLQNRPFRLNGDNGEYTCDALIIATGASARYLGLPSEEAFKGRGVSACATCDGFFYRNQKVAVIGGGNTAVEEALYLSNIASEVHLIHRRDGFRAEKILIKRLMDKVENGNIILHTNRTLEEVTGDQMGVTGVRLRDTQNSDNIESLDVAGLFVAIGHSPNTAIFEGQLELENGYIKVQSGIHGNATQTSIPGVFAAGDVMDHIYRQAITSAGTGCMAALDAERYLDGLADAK
protocol.description: Kinetic analysis of HOSCN metabolism and inhibition
measure: IC50 (nM)
Write the answer as a number in nM, unit excluded.

**Q:** Provide IC50 value for the following molecule: N#CSO [HOSCN, hypothiocyanite]
**A:** 2750

---

protocol.description: Viability after HOSCN exposure
test.parameters: human, human bronchial epithelial (16HBE) cells
measure: viability
Respond with the figure and its unit, in that order.

**Q:** Give a short answer stating reported viability for N#CSO .
**A:** 96.3%
